Molecular target: pSTAT3 (pY705-STAT3) (Homo sapiens, UniProt P40763)
Construct: host or cells: cryopreserved PBMC
Sequence (P40763 whole entry): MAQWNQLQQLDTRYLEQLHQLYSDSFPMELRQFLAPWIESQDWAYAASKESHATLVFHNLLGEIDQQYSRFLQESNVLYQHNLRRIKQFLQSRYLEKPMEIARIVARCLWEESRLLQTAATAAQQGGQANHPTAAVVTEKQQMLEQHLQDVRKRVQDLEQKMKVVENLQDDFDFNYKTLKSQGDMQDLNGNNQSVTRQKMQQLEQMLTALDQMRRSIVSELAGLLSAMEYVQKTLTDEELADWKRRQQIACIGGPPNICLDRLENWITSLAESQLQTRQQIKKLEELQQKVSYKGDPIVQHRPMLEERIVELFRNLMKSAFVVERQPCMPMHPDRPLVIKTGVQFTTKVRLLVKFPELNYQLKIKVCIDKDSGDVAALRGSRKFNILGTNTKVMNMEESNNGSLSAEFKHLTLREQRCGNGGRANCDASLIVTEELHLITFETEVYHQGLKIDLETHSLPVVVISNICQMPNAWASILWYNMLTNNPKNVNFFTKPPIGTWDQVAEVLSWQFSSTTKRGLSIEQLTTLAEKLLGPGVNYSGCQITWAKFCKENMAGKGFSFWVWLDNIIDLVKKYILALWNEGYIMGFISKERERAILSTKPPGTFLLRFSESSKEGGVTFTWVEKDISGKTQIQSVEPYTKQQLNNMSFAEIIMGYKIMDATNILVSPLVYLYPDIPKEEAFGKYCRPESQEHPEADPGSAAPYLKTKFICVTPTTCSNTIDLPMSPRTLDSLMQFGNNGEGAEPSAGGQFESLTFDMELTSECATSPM
Experiment: MSD-pSTAT-PBMC Assay (pSTAT3, IL-6 stimulated)
Type: cell-based
Quantity name: IC50

Compound: CCCOC(=O)[C@H](C)N[P@@](=O)(Oc1ccccc1)[C@H](F)c1ccc2sc(C(=O)N[C@H]3C[C@@H]4C[C@@H]4C[C@H]4CC[C@@H](C(=O)N5CC(c6cnccc6N(C)C)C5)N4C3=O)cc2c1 (stereo in doubt)
Quantity name: IC50
Recorded value: < 100 nM
--
Compound: CCCOC(=O)[C@H](C)N[P@@](=O)(Oc1ccccc1)[C@@H](F)c1ccc2sc(C(=O)N[C@H]3C[C@@H]4C[C@@H]4C[C@H]4CC[C@@H](C(=O)N5C[C@H](c6cnccc6N(C)C)CC56CC6)N4C3=O)cc2c1 (single isomer, unassigned)
Quantity name: IC50
Recorded value: < 100 nM

----------
Molecular target: pSTAT6 (pY641-STAT6) (Homo sapiens, UniProt P42226)
Sequence (P42226 1-847): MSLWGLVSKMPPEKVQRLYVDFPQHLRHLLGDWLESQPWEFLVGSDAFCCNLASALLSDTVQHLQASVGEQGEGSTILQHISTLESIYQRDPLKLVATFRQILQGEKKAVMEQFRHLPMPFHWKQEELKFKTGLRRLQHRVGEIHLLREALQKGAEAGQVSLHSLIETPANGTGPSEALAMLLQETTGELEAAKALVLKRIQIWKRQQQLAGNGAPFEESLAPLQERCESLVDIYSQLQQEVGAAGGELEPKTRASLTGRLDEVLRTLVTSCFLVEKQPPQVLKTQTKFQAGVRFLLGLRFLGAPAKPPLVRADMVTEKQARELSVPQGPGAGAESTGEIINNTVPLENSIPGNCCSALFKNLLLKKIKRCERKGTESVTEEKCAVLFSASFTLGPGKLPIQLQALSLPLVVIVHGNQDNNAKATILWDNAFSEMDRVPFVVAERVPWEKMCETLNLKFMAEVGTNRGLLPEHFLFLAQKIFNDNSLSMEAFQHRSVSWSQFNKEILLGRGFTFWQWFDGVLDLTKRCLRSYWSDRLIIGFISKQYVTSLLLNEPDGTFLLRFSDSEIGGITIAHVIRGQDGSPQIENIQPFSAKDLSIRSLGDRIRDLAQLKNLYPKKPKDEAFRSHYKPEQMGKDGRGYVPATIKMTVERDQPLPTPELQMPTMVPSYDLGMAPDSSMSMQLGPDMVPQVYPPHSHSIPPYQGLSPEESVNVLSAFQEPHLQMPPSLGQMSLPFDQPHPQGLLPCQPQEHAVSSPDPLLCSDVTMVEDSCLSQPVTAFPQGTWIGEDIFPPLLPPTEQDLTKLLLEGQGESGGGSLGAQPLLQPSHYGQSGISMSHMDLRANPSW
Assay: MSD-pSTAT-PBMC Assay (pSTAT6, IL-4 stimulated)
Conditions: compound 3 hrs, then 1 ng/mL IL-4 for 10 min

Compound: COCC(C)(C)OC(=O)OCOP(=O)(OCOC(=O)OC(C)(C)COC)C(F)(F)c1ccc2sc(C(=O)N[C@H]3C[C@H]4C[C@H]4C[C@H]4CC[C@@H](C(=O)N5CC(c6cccnc6)C5)N4C3=O)cc2c1
IC50: > 3 µM
//
Compound: CCCC(=O)SCCOP(=O)(Oc1ccccc1)C(F)(F)c1ccc2sc(C(=O)N[C@H]3C[C@@H]4C[C@@H]4C[C@H]4CC[C@@H](C(=O)N5CC(n6ccnc6)C5)N4C3=O)cc2c1 (stereo partly drawn)
IC50: 1 to 3 µM
//
Compound: CC(C)(C)C(=O)OCOP(=O)(OCOC(=O)C(C)(C)C)[C@@H](F)c1ccc2sc(C(=O)N[C@H]3C[C@@H]4C[C@@H]4C[C@H]4CC[C@@H](C(=O)N5CC(C(=O)N6CCOCC6)C5)N4C3=O)cc2c1 (single isomer, unassigned) [Compound 182]
IC50: > 3 µM
//
Compound: COC1(c2nccn2C)CN(C(=O)[C@@H]2CC[C@@H]3C[C@@H]4C[C@@H]4C[C@H](NC(=O)c4cc5cc(C(F)(F)P(=O)(OCCSC(=O)C(C)(C)C)OCCSC(=O)C(C)(C)C)ccc5s4)C(=O)N32)C1
IC50: > 3 µM
//
Compound: CCCC(=O)SCCOP(=O)(OCCSC(=O)C(C)(C)C)C(F)(F)c1ccc2sc(C(=O)N[C@H]3C[C@@H]4C[C@@H]4C[C@H]4CC[C@@H](C(=O)N5CC(C(=O)N6CCOCC6)C5)N4C3=O)cc2c1 (stereo partly drawn)
IC50: 1 to 3 µM
//
Compound: CC(C)(C)C(=O)SCCOP(=O)(OCCSC(=O)C(C)(C)C)C(F)(F)c1ccc2sc(C(=O)N[C@H]3C[C@@H]4C[C@@H]4C[C@H]4CC[C@@H](C(=O)N5CC(n6ccnc6)C5)N4C3=O)cc2c1
IC50: > 3 µM
//
Compound: CCCC(=O)SCCOP(=O)(Cc1ccc2sc(C(=O)N[C@H]3C[C@@H]4C[C@@H]4C[C@H]4CC[C@@H](C(=O)N5CC(C(=O)N6CCOCC6)C5)N4C3=O)cc2c1)OCCSC(=O)CCC
IC50: > 3 µM
//
Compound: CC(C)CC(=O)SCCOP(=O)(Oc1ccccc1)C(F)(F)c1ccc2sc(C(=O)N[C@H]3C[C@H]4C[C@H]4C[C@H]4CC[C@@H](C(=O)N5CC(n6ccnc6)C5)N4C3=O)cc2c1 (stereo partly drawn)
IC50: > 3 µM
//
Compound: CCCC(=O)SCCOP(=O)(Cc1ccc2sc(C(=O)N[C@H]3C[C@@H]4C[C@@H]4C[C@H]4CC[C@@H](C(=O)N5CC(n6ccnc6)C5)N4C3=O)cc2c1)OCCSC(=O)CCC
IC50: > 3 µM
